Reported Ki values are given for each entry in this list.
SUBJECT OF TEST: UniProtKB P08908
Sequence (P08908 1-422): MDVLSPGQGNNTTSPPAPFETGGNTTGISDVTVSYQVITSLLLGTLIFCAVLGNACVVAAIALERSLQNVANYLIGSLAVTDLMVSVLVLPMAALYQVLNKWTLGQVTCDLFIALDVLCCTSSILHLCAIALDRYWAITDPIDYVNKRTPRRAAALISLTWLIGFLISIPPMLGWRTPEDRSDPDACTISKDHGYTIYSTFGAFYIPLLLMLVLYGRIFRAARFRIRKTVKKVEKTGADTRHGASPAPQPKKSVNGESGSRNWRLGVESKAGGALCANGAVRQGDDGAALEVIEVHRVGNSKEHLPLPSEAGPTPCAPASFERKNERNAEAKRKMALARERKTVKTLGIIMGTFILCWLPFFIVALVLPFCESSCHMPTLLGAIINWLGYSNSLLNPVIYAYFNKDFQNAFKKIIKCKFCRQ
Remember to quote the unit after the number.

response.value for COc1ccc2[nH]cc([C@H]3CC[C@@H](N4CCN(c5ccccc5OC)CC4)CC3)c2c1 [Example 20a] (field: Ki) = 631 nM

response.value for c1cc(N2CCN([C@H]3CC[C@H](c4c[nH]c5ncccc54)CC3)CC2)c2cc[nH]c2c1 [Example 10b] (field: Ki) = 7.78 nM

Next:
response.value for N#Cc1ccc2[nH]cc([C@H]3CC[C@H](N4CCN(c5cc(F)cc6c5OCC6)CC4)CC3)c2c1 [Example 33b] (field: Ki) = 19.2 nM

response.value for Fc1cccc2[nH]cc([C@H]3CC[C@@H](N4CCN(c5cccc6c5OCCO6)CC4)CC3)c12 [Example 23a] (field: Ki) = 103 nM

response.value for Fc1ccc2c(c1)[nH]cc2[C@H]1CC[C@H](N2CCN(c3cccc4c3OCCO4)CC2)CC1 [Example 25b] (field: Ki) = 9.66 nM

response.value for Fc1ccc2c(c1)[nH]cc2[C@H]1CC[C@@H](N2CCN(c3cccc4c3OCCO4)CC2)CC1 [Example 25a] (field: Ki) = 67.7 nM

response.value for Fc1cc2c(c(N3CCN([C@H]4CC[C@@H](c5c[nH]c6ccc(F)cc65)CC4)CC3)c1)OCC2 [Example 32a] (field: Ki) = 246 nM

---

SUBJECT OF TEST: human 5-HT1A receptor subtype (Homo sapiens, UniProt P08908)
Sequence (P08908 1-422): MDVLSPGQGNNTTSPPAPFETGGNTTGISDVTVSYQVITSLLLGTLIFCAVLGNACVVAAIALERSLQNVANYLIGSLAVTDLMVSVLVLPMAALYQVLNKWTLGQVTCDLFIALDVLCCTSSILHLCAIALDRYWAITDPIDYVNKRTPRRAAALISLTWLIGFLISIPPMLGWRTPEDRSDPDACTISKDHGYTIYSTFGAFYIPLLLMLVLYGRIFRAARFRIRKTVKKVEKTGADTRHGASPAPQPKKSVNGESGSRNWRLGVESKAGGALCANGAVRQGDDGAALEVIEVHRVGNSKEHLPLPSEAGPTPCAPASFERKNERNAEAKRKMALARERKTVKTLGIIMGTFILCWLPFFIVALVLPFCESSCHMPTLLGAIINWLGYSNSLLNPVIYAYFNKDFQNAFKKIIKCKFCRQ
ENDPOINT NAME: Ki (nM)
Report the value in nM with no unit label.

Answered cases to consult:
response.value for Fc1ccc2[nH]cc([C@H]3CC[C@H](N4CCN(c5cccc6cccnc56)CC4)CC3)c2c1 [Example 27b] (field: Ki) = 6.54

response.value for N#Cc1ccc2[nH]cc([C@H]3CC[C@@H](N4CCN(c5cc(F)cc6c5OCC6)CC4)CC3)c2c1 [Example 33a] (field: Ki) = 98.9

response.value for N#Cc1ccc2[nH]cc([C@H]3CC[C@H](N4CCN(c5cccc6c5OCCO6)CC4)CC3)c2c1 [Example 26b] (field: Ki) = 8.5

response.value for COc1cc(N2CCN([C@H]3CC[C@@H](c4c[nH]c5ccc(C#N)cc54)CC3)CC2)c2ncccc2c1 [Example 44c] (field: Ki) = 21

response.value for Fc1ccc2[nH]cc([C@H]3CC[C@@H](N4CCN(c5cccc6cccnc56)CC4)CC3)c2c1 [Example 27a] (field: Ki) = 69.7

response.value for Fc1cc2c(c(N3CCN([C@H]4CC[C@H](c5c[nH]c6ccc(F)cc65)CC4)CC3)c1)OCC2 [Example 32b] (field: Ki) = 49.1

Next:
response.value for Cn1cc([C@H]2CC[C@@H](N3CCN(c4cc(F)cc5c4OCC5)CC3)CC2)c2cc(C#N)ccc21 [Example 33c] (field: Ki) = 431

response.value for COc1ccccc1C1CCN([C@H]2CC[C@H](c3c[nH]c4ccc(F)cc43)CC2)CC1 [Example 19b] (field: Ki) = 26.2

response.value for N#Cc1ccc2[nH]cc([C@H]3CC[C@@H](N4CCN(c5cccc6ccoc56)CC4)CC3)c2c1 [Example 34a] (field: Ki) = 185

response.value for c1cc(N2CCN([C@H]3CC[C@@H](c4c[nH]c5ncccc54)CC3)CC2)c2cc[nH]c2c1 [Example 10a] (field: Ki) = 15.8

response.value for Fc1cccc2[nH]cc([C@H]3CC[C@H](N4CCN(c5cccc6c5OCCO6)CC4)CC3)c12 [Example 23b] (field: Ki) = 14.9

response.value for N#Cc1ccc2[nH]cc([C@H]3CC[C@H](N4CCN(c5cccc6ccoc56)CC4)CC3)c2c1 [Example 34b] (field: Ki) = 8.37

response.value for "Cn1cc([C@H]2CC[C@@H](N3CCN(c4cccc5cccnc45)CC3)CC2)c2cc(F)ccc21" (field: Ki) = 25.1

response.value for CCn1cc([C@H]2CC[C@@H](N3CCN(c4cccc5[nH]ccc45)CC3)CC2)c2cc(C#N)ccc21 [Example 13a] (field: Ki) = 563

response.value for Fc1cc2c(c(N3CCN([C@H]4CC[C@@H](c5c[nH]c6ccc(F)cc65)CC4)CC3)c1)OCCC2 [Example 31a] (field: Ki) = 142

---

Reported Ki values are given for each entry in this list.
SUBJECT OF TEST: serotonin transporter (Rattus norvegicus, UniProt P31652)
Construct: frontal cortical membranes prepared from male Sprague-Dawley rats; from tissue; host or cells: rat frontal cortex membranes
Sequence (P31652 whole entry): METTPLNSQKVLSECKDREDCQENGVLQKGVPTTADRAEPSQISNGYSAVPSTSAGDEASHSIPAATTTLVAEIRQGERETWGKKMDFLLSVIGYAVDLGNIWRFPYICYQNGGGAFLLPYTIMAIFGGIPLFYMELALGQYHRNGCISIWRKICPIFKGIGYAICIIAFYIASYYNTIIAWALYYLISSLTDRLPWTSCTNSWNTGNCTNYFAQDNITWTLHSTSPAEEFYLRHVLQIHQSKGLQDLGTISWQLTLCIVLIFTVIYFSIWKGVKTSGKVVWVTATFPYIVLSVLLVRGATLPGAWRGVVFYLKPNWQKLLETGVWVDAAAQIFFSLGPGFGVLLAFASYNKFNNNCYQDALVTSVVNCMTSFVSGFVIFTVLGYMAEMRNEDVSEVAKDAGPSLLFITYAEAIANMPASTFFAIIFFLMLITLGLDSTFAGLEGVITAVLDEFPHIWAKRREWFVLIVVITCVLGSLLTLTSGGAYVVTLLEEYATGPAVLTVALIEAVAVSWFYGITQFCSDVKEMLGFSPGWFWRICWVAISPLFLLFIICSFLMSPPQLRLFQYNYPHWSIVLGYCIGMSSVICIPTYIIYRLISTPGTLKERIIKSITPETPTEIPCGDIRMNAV
ASSAY NAME: serotonin transporter affinity, 3H-paroxetine binding, frontal cortical membranes
TEST SETTINGS: 3H-paroxetine 0.1 nM; read-out: ST (Ki, nM,)
Report the value in nM with no unit label.

Tested on serotonin transporter (Rattus norvegicus, UniProt P31652), the item N#Cc1ccc2[nH]cc([C@H]3CC[C@@H](N4CCN(c5cccc6c5OCCO6)CC4)CC3)c2c1 [Example 26a] showed Ki equal to 4.1

Tested on serotonin transporter (Rattus norvegicus, UniProt P31652), the item CC(C)n1cc([C@H]2CC[C@@H](N3CCN(c4cccc5[nH]ccc45)CC3)CC2)c2cc(C#N)ccc21 [Example 15a] showed Ki equal to 28

Tested on serotonin transporter (Rattus norvegicus, UniProt P31652), the item N#Cc1ccc2c(c1)c([C@H]1CC[C@@H](N3CCN(c4cccc5[nH]ccc45)CC3)CC1)cn2Cc1ccccc1 [Example 16a] showed Ki equal to 29

Tested on serotonin transporter (Rattus norvegicus, UniProt P31652), the item Fc1cc2c(c(N3CCN([C@H]4CC[C@@H](c5c[nH]c6ccc(F)cc65)CC4)CC3)c1)OCCC2 [Example 31a] showed Ki equal to 13

Tested on serotonin transporter (Rattus norvegicus, UniProt P31652), the item Fc1cc2c(c(N3CCN([C@H]4CC[C@@H](c5c[nH]c6ccc(F)cc65)CC4)CC3)c1)OCC2 [Example 32a] showed Ki equal to 14

Next:
Tested on serotonin transporter (Rattus norvegicus, UniProt P31652), the item Cn1cc([C@H]2CC[C@@H](N3CCN(c4cccc5cccnc45)CC3)CC2)c2cc(C#N)ccc21 [Example 30] showed Ki equal to 1.25

Tested on serotonin transporter (Rattus norvegicus, UniProt P31652), the item COc1ccccc1C1CCN([C@H]2CC[C@@H](c3c[nH]c4ccc(F)cc43)CC2)CC1 [Example 19a] showed Ki equal to 5.72

Tested on serotonin transporter (Rattus norvegicus, UniProt P31652), the item N#Cc1ccc2[nH]cc([C@H]3CC[C@@H](N4CCN(c5cc(F)cc6c5OCC6)CC4)CC3)c2c1 [Example 33a] showed Ki equal to 1.9

Tested on serotonin transporter (Rattus norvegicus, UniProt P31652), the item N#Cc1ccc2[nH]cc([C@H]3CC[C@H](N4CCN(c5cccc6[nH]ccc56)CC4)CC3)c2c1 [Example 7b] showed Ki equal to 4.19

Tested on serotonin transporter (Rattus norvegicus, UniProt P31652), the item Cn1cc([C@H]2CC[C@@H](N3CCN(c4cc(F)cc5c4OCC5)CC3)CC2)c2cc(C#N)ccc21 [Example 33c] showed Ki equal to 7.1

Tested on serotonin transporter (Rattus norvegicus, UniProt P31652), the item N#Cc1ccc2[nH]cc([C@H]3CC[C@@H](N4CCN(c5cccc6[nH]ccc56)CC4)CC3)c2c1 [Example 7a] showed Ki equal to 1.62
